FYI, the data here is from paper PMC10716131.

- system-tested: DDB1:CRBN complex, full-length human CRBN (residues 1–442) with N-terminal biotinylated Avi-tag, co-expressed … (human, UniProt Q96SW2 1-442; Q16531 1-1140, biotin on the Avi-tag (BirA, 100% efficiency))
- Sequence (Q96SW2 whole entry, chain 1 of 2, the tested form may be a part): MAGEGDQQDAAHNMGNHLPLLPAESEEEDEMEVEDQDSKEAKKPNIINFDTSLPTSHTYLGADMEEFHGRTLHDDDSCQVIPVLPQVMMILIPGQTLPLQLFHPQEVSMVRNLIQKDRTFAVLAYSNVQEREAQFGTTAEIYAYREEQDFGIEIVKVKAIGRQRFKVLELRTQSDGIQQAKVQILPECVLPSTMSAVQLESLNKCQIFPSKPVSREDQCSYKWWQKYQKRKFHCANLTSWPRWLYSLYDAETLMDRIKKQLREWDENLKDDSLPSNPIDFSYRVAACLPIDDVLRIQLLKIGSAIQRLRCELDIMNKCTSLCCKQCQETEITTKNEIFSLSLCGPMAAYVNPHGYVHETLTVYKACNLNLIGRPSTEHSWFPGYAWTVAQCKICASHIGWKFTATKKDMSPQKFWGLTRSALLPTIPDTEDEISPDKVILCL
- Sequence (Q16531 whole entry, chain 2 of 2, the tested form may be a part): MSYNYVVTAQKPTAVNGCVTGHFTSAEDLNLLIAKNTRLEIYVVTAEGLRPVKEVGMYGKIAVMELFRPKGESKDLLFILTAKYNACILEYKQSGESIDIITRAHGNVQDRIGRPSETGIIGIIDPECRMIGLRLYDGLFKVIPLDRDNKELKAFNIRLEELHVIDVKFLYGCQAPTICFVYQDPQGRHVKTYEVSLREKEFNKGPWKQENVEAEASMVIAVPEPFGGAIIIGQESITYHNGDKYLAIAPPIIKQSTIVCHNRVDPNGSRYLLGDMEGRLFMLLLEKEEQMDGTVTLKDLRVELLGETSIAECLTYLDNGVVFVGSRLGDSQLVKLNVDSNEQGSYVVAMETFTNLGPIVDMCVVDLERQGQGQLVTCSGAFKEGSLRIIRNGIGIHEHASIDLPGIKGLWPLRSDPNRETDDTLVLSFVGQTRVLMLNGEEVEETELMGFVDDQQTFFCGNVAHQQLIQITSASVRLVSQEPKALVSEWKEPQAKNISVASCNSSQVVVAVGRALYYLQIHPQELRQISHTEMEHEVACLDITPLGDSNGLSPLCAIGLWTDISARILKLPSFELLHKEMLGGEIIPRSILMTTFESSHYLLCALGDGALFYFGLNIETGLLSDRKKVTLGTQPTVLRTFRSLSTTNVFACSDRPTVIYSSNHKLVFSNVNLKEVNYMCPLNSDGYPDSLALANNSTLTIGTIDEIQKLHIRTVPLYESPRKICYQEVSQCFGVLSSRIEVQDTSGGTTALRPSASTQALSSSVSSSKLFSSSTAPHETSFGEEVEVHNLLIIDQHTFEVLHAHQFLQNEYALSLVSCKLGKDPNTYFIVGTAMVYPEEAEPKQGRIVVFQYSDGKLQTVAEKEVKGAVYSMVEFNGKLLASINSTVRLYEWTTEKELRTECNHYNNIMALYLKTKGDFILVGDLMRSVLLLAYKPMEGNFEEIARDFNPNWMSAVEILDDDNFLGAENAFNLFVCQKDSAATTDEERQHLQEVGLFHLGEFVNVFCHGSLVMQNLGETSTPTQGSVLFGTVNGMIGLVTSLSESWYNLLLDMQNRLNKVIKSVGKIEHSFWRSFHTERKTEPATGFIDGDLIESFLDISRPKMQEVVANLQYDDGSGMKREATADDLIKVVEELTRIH
- procedure-text: SPR; CC-220 5 uM
endpoint-label: Kd (nM)

# binder, test-result
rows = [
    ("Human SALL4 ZF1-2(370–454) (domain or fragment) DVKPKDEAALYKHKCKYCSKVFGTDSSLQIHLRSHTGERPFVCSVCGHRFTTKGNLKVHFHRHPQVKANPQLFAEFQDKVAAGNG", 310),
]

I = TGERPFVCSVCGHRFTTKGNLKVHFHRHPQVKA (domain or fragment) [Human SALL4 ZF2(405–437)]
II = TGERPFVCSVCGHRFTTKGNLKVHFHRHPQVKANPQLFAEFQDKVAAGNG (domain or fragment) [Human SALL4 ZF2(405–454)]
Ask: Hi there! Just curious which has the higher Kd between I and II . Answer format: the label of the selected item.
Reply: I
